Task for the reader: assign each of the following binders its reported optical density.
# measured_target: Mouse ACVR2A (mouse, UniProt P27038 20-135, limits assumed); also: test concentration or dose not given here
# Sequence (P27038 20-135 limits assumed): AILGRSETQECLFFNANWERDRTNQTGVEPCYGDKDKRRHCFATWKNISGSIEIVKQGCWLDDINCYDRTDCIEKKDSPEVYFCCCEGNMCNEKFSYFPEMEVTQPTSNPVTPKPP
# assay_name: ELISA
Report the value in OD with no unit label.

Query block: State its optical density: 374_B06 (antibody, V domains shown) VH: EVQLLESGGGLVQPGGSLRLSCAASGFTFDSYSMNWVRQAPGKGLEWVAGINYNSGYKGYADSVKGRFTISRDNSKNTLYLQMNSLRAEDTAVYYCARSANWHDTHLDYWGQGTLVTVSS VL: DIQMTQSPSSLSASVGDRVTITCRASQSILTYVNWYQQKPGKAPKLLIYAATSRASGVPSRFSGSGSGTDFTLTISSLQPEDFATYYCQQSYDTPLTFGGGTKVEIK
Result block: 3.6

Query block: State its optical density: 370_C08 (antibody, V domains shown) VH: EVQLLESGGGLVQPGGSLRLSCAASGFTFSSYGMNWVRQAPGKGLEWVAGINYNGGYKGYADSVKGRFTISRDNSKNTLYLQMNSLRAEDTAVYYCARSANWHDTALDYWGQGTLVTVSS VL: DIQMTQSPSSLSASVGDRVTITCRASQSISNYLNWYQQKPGKAPKLLIYAVTSRASGVPSRFSGSGSGTDFTLTISSLQPEDFATYYCQQSYDSPLTFGGGTKVEIK
Result block: 2.97

Query block: State its optical density: 368_F11 (antibody, V domains shown) VH: EVQLLESGGGLVQPGGSLRLSCAASGFTFSDYGMNWVRQAPGKGLEWVSGINYNGGYTSYADSVKGRFTISRDNSKNTLYLQMNSLRAEDTAVYYCARSANWHDTHLDYWGQGTLVTVSS VL: DIQMTQSPSSLSASVGDRVTITCRASQSIVSYVNWYQQKPGKAPKLVIYAATSRASGVPSRFSGSGSGTDFTLTISSLQPEDFATYYCQQSYNNPLTFGGGTKVEIK
Result block: 2.73
